These data points were gathered from patent US10344026B2.

Some compounds, each annotated with its measured EC50.
# System: phospho-ERK in Panc1 (G12D)
# MEASUREMENT NOTES: In-Cell Western phospho-ERK, Panc1
# Type: cell-based
# EXPERIMENTAL SETUP: Homo sapiens, PANC-1, 1 h; Panc1, one hour treatment; read-out: In-Cell Western Panc1 (G12D) Erk (P)
Hi! Could you send only the number? It should be in µM, unit omitted.

Known EC50 results, listed for orientation:
[
  {
    "COMPOUND": "Cc1nc(C(C)C)sc1C(=O)Nc1nc(-c2ccc3c(c2)CCC(=O)N3Cc2cccnc2)cs1 [Compound 107]",
    "ASSAY SYSTEM": "phospho-ERK in Panc1 (G12D)",
    "UNITS OF MEASURE": "µM",
    "EC50": 6
  },
  {
    "COMPOUND": "Cc1nc(NC(=O)Nc2ccccc2)sc1C(=O)Nc1nc(-c2ccc3c(c2)CCC(=O)N3)cs1 [Compound 15]",
    "ASSAY SYSTEM": "phospho-ERK in Panc1 (G12D)",
    "UNITS OF MEASURE": "µM",
    "EC50": 2
  },
  {
    "COMPOUND": "Cn1cc(C(=O)Nc2nc(-c3ccc4c(c3)CCC(=O)N4)cs2)c(-c2ccccc2)n1 [Compound 29]",
    "ASSAY SYSTEM": "phospho-ERK in Panc1 (G12D)",
    "UNITS OF MEASURE": "µM",
    "EC50": 13
  },
  {
    "COMPOUND": "Cc1nn(C(C)C)cc1C(=O)Nc1nc(-c2ccc3c(c2)CCC(=O)N3)cs1 [Compound 36]",
    "ASSAY SYSTEM": "phospho-ERK in Panc1 (G12D)",
    "UNITS OF MEASURE": "µM",
    "EC50": 2
  }
]

Item under review: Cc1nn(C)c(C)c1C(=O)Nc1nc(-c2ccc3c(c2)CCC(=O)N3)cs1 [Compound 40] . Reported EC50? 8

====

# System: Ishikawa (K-Ras wild type cell line)
# MEASUREMENT NOTES: Viability assay (CellTiterBlue, 72 hr) Ishikawa
# Assay type: cell-based
# EXPERIMENTAL SETUP: Homo sapiens, GI50, CellTiterBlue, Ishikawa K-Ras wild-type
MEASURED ENDPOINT: pIC50
// pIC50: -log10(molar conc.)

[
  {
    "TEST SMILES": "Cc1nc(C2CC2)oc1C(=O)Nc1nc(-c2ccc3c(c2)CCC(=O)N3CCc2ccccc2)cs1",
    "EXPERIMENTAL RESULT": 5.68
  },
  {
    "TEST SMILES": "CCn1nc(C)c(C(=O)Nc2nc(-c3ccc4c(c3)CCC(=O)N4)cs2)c1C",
    "EXPERIMENTAL RESULT": 4.74
  }
]

Item under review: `Cc1cc(C(=O)Nc2nc(-c3ccc4c(c3)CCC(=O)N4)cs2)n(C)n1` . Reported pIC50? 5.40

Further, for `CCn1cc(C(=O)Nc2nc(-c3ccc4c(c3)CCC(=O)N4)cs2)cn1` ? 5.05

Further, for `CCc1nc(C)c(C(=O)Nc2nc(-c3ccc4c(c3)CCC(=O)N4Cc3ccccn3)cs2)o1` ? 5.40
